- target: KRas G12D/Q61H double mutant (Homo sapiens (Human), UniProt P01116, G12D/Q61H)
- Sequence (P01116-2 other isoform, or with tags, fused parts or gaps G12D/Q61H): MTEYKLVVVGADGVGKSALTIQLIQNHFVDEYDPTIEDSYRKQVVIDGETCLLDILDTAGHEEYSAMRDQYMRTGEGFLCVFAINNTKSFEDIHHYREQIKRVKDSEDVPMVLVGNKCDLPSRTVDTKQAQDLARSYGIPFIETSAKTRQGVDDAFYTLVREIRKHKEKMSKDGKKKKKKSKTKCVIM
- assay-comment: Ras GTP binding domain inhibition assay (labeled GTP)
- test-context: at 20 μM; read-out: KRas G12D Q61H % Inh.
parameter: inhibition at 20 µM

>>> print(df.to_string())
                                   compound     result
0  COc1cccc(-c2csc3c(O)nc(-c4ccccn4)nc23)c1 [drawing 3744]  25 to 50%
1  Oc1nc(-c2ccccn2)nc2sc3c(c12)CCCNC3 [drawing 3724]  25 to 50%
2  O=C(NCCc1nnn[nH]1)c1csc2nc(-c3ccccn3)nc(N3CCOCC3)c12 [drawing 3675]   1 to 25%
3      COc1cnc(C(C)(C)N)nc1O [drawing 3810]   1 to 25%
4   COc1cnc(-c2cn(C)cn2)nc1O [drawing 3815]  51 to 75%

Give inhibition at 20 µM for all compounds that follow.
1. Cc1sc2c(O)nc(-c3ccccn3)nc2c1C(=O)O [drawing 3801]
2. OCC1(c2ccc(-c3nc(-c4ccccn4)nc(O)c3Oc3ccccc3)cc2)CC1 [drawing 3852]
3. Nc1nc(-c2ccccn2)nc2scc(C(=O)O)c12 [drawing 3778]
4. Cc1cc2nc(-c3ccccn3)nc(O)c2s1 [drawing 3791]

// result
1: 25 to 50%; 2: 51 to 75%; 3: 25 to 50%; 4: 51 to 75%

----------
- target: Rho-A (Homo sapiens (Human), UniProt P61586)
- Sequence (P61586 whole entry): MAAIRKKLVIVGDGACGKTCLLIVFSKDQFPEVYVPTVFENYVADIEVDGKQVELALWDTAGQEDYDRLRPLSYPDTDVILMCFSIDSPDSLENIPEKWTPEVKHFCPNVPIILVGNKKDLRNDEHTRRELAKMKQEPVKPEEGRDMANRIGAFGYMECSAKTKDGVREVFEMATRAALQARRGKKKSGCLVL
- assay-comment: Rho inhibition assay (labeled GTP)
- Assay type: binding
- test-context: read-out: Rho-A % Inh.
Please go through the items and note down their inhibition at 20 µM.

Record excerpt, results attached:
In [3]: df
Out[3]:
                                   compound            parameter      result
0  Oc1nc(-c2ccccn2)nc2c(-c3ccc(OC4CCOCC4)cc3)csc12 [drawing 3739]  inhibition at 20 µM   51 to 75%
1  O=C(CCc1cncnc1)Nc1nc(-c2ccccn2)nc2sccc12 [drawing 3763]  inhibition at 20 µM  76 to 100%
2  O=C(c1cc2nc(-c3ccccn3)nc(O)c2s1)N1CCOC(c2ccccc2)C1 (stereo not drawn) [drawing 3714]  inhibition at 20 µM  76 to 100%

Please give inhibition at 20 µM, item by item, for the list that follows.
1. COC(C)(C)c1ccc(-c2csc3c(O)nc(-c4nccn4C)nc23)cc1 [drawing 3936]
2. OCC1(c2ccc(-c3csc4c(O)nc(-c5ccccn5)nc34)cc2)CC1 [drawing 3758]
3. Oc1nc(-c2ccccn2)nc2c(-c3ccccc3Cl)csc12 [drawing 3626]
4. O=C(c1csc2c(O)nc(-c3ccccn3)nc12)N1CCN(Cc2cccc(O)c2)CC1 [drawing 3629]

// result
1. 51 to 75%
2. 76 to 100%
3. 76 to 100%
4. 76 to 100%

Value sought for every listed compound: inhibition at 20 µM.
1. Oc1nc(-c2ccccn2)nc2c(-c3ccc(OC(F)F)cc3F)csc12 [drawing 3748]
2. Cc1ccc(-c2csc3c(O)nc(-c4ccccn4)nc23)cc1 [drawing 3878]

// result
["76 to 100%", "25 to 50%"]

----------
- target: KRas G12C/Q61H double mutant (Homo sapiens (Human), UniProt P01116, G12C/Q61H)
- Sequence (P01116-2 other isoform, or with tags, fused parts or gaps G12C/Q61H): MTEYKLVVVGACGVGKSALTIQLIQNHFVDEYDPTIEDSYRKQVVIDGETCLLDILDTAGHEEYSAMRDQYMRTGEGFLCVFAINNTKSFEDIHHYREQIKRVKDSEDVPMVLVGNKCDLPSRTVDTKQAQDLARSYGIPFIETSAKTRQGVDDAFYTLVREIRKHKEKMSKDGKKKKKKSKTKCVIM
- assay-comment: Ras GTP binding domain inhibition assay (labeled GTP)
- test-context: 20 μM compound; KRas G12C/Q61H double mutant; read-out: % Inhibition at 20 μM of K-Ras mutant and wild-type protein, KRas G12C Q61H
parameter: inhibition at 20 µM

Record excerpt, results attached:
In [3]: df
Out[3]:
                                   molecule                                    target      result
0  COC(=O)c1c(C)sc2c(N)nc(-c3ccccn3)nc12 [drawing 3499]  KRas G12C/Q61H double mutant (Homo sapiens (Human), UniProt P01116, G12C/Q61H)   51 to 75%
1  Cc1sc2c(O)nc(-c3ccccn3)nc2c1-c1ccccc1Cl [drawing 3515]  KRas G12C/Q61H double mutant (Homo sapiens (Human), UniProt P01116, G12C/Q61H)   51 to 75%
2  CC(C)Oc1cnc(-c2ccccn2)nc1O [drawing 3481]  KRas G12C/Q61H double mutant (Homo sapiens (Human), UniProt P01116, G12C/Q61H)  76 to 100%
3  Nc1nc(O)c2sc(-c3cccc(C(=O)N4CCC(O)C4)c3)cc2n1 (stereo not shown) [drawing 3543]  KRas G12C/Q61H double mutant (Homo sapiens (Human), UniProt P01116, G12C/Q61H)    1 to 25%
4  Oc1nc(-c2ccccn2)nc2cc(-c3ccc(-c4ccccc4)cc3)sc12 [drawing 3559]  KRas G12C/Q61H double mutant (Homo sapiens (Human), UniProt P01116, G12C/Q61H)    1 to 25%

Quick one: give me inhibition at 20 µM for each item below, same order please.
1. Oc1nc(-c2ccccn2)nc2c(-c3ccc(Cl)c(Cl)c3)csc12 [drawing 3463]
2. COc1nc(-c2ccccn2)nc2c(C3CCCC3)csc12 [drawing 3470]

// result
1 to 25%
51 to 75%

Hey, can you go through the list below and give me inhibition at 20 µM for every item?
1. Oc1nc(-c2ccccn2)nc2c(-c3cncc(C(F)(F)F)c3)csc12 [drawing 3466]
2. Oc1nc(-c2ccccn2)nc2cc(-c3cccc(Br)c3)sc12 [drawing 3564]
3. OCC1(c2ccc(-c3nc(-c4ccccn4)nc(-c4ccc(C5(CO)CC5)cc4)c3Oc3ccccc3)cc2)CC1 [drawing 3532]
4. Cc1sc2c(O)nc(-c3ccccn3)nc2c1C(=O)O [drawing 3482]
5. Oc1nc(-c2ccccn2)nc2c(Br)c(-c3ccccc3)sc12 [drawing 3553]
6. Cn1cnc(-c2nc(O)c3c(-c4ccccc4)c(-c4ccc(CNC(=O)OC(C)(C)C)cc4)sc3n2)c1 [drawing 3537]

// result
0%
1 to 25%
1 to 25%
25 to 50%
1 to 25%
1 to 25%

Parameters: items (list). Returns: inhibition at 20 µM for each item.
1. OCC1(c2ccc(-c3nc(-c4ccccn4)nc(O)c3Oc3ccccc3)cc2)CC1 [drawing 3534]
2. COC(=O)c1c(C)sc2c(O)nc(-c3ccccn3)nc12 [drawing 3473]
3. Oc1nc(-c2ccccn2)nc(Oc2cccc(C(F)(F)F)c2)c1O [drawing 3558]
4. Cc1c(-c2csc3c(O)nc(-c4ccccn4)nc23)cnn1C [drawing 3505]
5. COc1cnc(-c2nccn2C)nc1O [drawing 3513]

// result
1: 76 to 100%; 2: 51 to 75%; 3: 76 to 100%; 4: 51 to 75%; 5: 76 to 100%

// query Using known records, supply inhibition at 20 µM for CN(C)CCOc1cccc(-c2csc3c(O)nc(-c4ccccn4)nc23)c1 [drawing 3492]
// result 76 to 100%

----------
- target: KRas Q61H mutant (Homo sapiens (Human), UniProt P01116, Q61H)
- Sequence (P01116-2 other isoform, or with tags, fused parts or gaps Q61H): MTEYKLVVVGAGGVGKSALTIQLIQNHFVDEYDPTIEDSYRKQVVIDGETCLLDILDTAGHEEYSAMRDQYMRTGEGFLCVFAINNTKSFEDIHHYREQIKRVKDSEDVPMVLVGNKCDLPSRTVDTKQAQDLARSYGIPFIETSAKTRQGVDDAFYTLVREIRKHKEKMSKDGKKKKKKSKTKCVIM
- assay-comment: Ras GTP binding domain inhibition assay (labeled GTP)
- test-context: 20 μM compound; read-out: % Inhibition at 20 μM KRas Q61H
parameter: inhibition at 20 µM

Take a look at these entries with their results.
>>> print(df.to_string())
                                   molecule      result
0  COCCCCN(C)C(=O)c1csc2nc(-c3ccccn3)nc(N3CCOCC3)c12 [drawing 2790]   51 to 75%
1  O=C(c1cc2nc(-c3ccccn3)nc(O)c2s1)N1CCOC(c2ccccc2)C1 (stereo not drawn) [drawing 2842]  76 to 100%
2  Oc1nc(-c2ccccn2)nc2sccc12 [drawing 2704]   51 to 75%
3  COc1cc(CCNC(=O)c2csc3nc(-c4ccccn4)nc(N4CCOCC4)c23)ccn1 [drawing 2747]   25 to 50%

Hello, I would appreciate it if you could give inhibition at 20 µM for each entry below.
1. O=C(NCCc1cncs1)c1csc2nc(-c3ccccn3)nc(N3CCOCC3)c12 [drawing 2749]
2. CN(C)Cc1ccc(-c2csc3c(O)nc(-c4ccccn4)nc23)cc1F [drawing 2845]
3. CC(c1ccccc1)N1CCN(C(=O)c2csc3c(O)nc(-c4ccccn4)nc23)CC1 (stereo not drawn) [drawing 2804]
4. O=C(c1csc2c(O)nc(-c3ccccn3)nc12)N1CCN(Cc2ccc(O)c(Cl)c2)CC1 [drawing 2765]
5. COc1ccccc1C1CN(C(=O)c2csc3c(O)nc(-c4ccccn4)nc23)CCN1 (stereo not drawn) [drawing 2772]

// result
25 to 50%
76 to 100%
76 to 100%
76 to 100%
76 to 100%
